Assay readout: melting point

Would you please look over these solved cases?
- O=c1cc(-c2ccc3ccccc3c2)[nH]c2ccccc12: 290 to 292 °C
- Cn1c(=O)c([N+](=O)[O-])c(N2CCN(C(=O)c3cccs3)CC2)c2ccccc21: 105 °C
- CCCC1=C(C#N)C(c2cccc(Cl)c2Cl)c2c[nH]nc2N1 (configuration not stated): 242 °C
- CC1(C)C=C(c2ncccn2)c2cc(C#N)ccc2O1: 108 to 110 °C
- NS(=O)(=O)c1ccc(NC(=O)Nc2ccc(F)cc2)cc1: 242 to 243 °C

Now for the molecule whose melting point we want.
Look at this molecule and give its reported melting point. CCCCCc1c(-c2ccc3cc(OCc4nnn[nH]4)ccc3c2)n(C)c2ccccc12
120 to 122 °C
